Field: pIC50. System: Prostaglandin G/H synthase 2 (Homo sapiens, UniProt P35354). Provenance: assorted publications.
pIC50: −log10 of the molar value.
Test Readout: pIC50

Cc1ccc2oc(=O)c(S(=O)(=O)Nc3ccc(S(N)(=O)=O)cc3)c(O)c2c1 | 5.08
Cc1c2c(c(C)n1-c1ccccc1)C(=O)N(CC(O)CN1CCN(c3ccc(F)cc3F)CC1)C2=O (centres unmarked) | 4.22
NS(=O)(=O)c1ccc(-c2c(-c3ccc(F)cc3)c3cccc4ccn2c43)cc1 | 7.05
CCCCn1c(C)c2c(c1C)C(=O)N(CC(O)CN1CCN(c3ccc(C)cc3)CC1)C2=O (centres unmarked) | 4.22
COc1ccccc1[C@H](C[N+](=O)[O-])[C@@](C)(C=O)Cc1ccc(C(C)C)cc1 (mixture of isomers) | 5.09
NS(=O)(=O)c1ccc(N2N=C(c3cc(F)cc(F)c3)CC2c2ccc3c(c2)OCCO3)cc1 (centres unmarked) | 5.82

A. CC(C)c1ccc(C[C@](C)(C(=O)O)[C@@H](C[N+](=O)[O-])c2ccccc2)cc1
B. CC1SC(NN=Cc2ccc(-n3nc(-c4ccccc4)ccc3=O)cc2)=NC1=O (centres unmarked)
Returns: the argument ( A or B ) having the larger pIC50. Identify your selection by its label.
B

* * *

Kindly find below IC50 information for Prostaglandin G/H synthase 2 (Homo sapiens) taken from the literature.
Test Readout: IC50 (nM)

I. COc1ccc(-c2nc(NCc3cc4ccccc4s3)nc(OC)c2C#N)cc1
II. CCCCn1c(C)c2c(c1C)C(=O)N(CC(O)CN1CCN(c3ccc(F)cc3F)CC1)C2=O (centres unmarked)
III. Cc1ccc(NC(=O)Nc2nnc(SCC(=O)Nc3c(C)n(C)n(-c4ccccc4)c3=O)s2)cc1
IV. O=c1c(O)c(-c2ccc(O)cc2)oc2cc(O)cc(O)c12
Ordering criterion: IC50; begin with the maximum. Output the labels ranked as instructed.
II, IV, I, III
(II: 56400 nM, IV: 30700 nM, I: 340 nM, III: 104 nM)

* * *

Below are IC50 measurements against Prostaglandin G/H synthase 2 (Homo sapiens, UniProt P35354) drawn from the literature.
Test Readout: IC50 (nM)

Solved cases (3 shown):
CCOc1ccccc1N1CCN(CC(O)CN2C(=O)c3c(c(C)n(-c4cccc(Cl)c4)c3C)C2=O)CC1 (centres unmarked) | 60500
NS(=O)(=O)c1ccc(-c2c(-c3ccc(F)cc3)c3cccc4c3n2CC4)cc1 | 92
O=c1ccc(-c2ccccc2)nn1-c1ccc(C=NNc2nc(-c3ccc(Br)cc3)cs2)cc1 | 17.5

A. Cc1c(NC(=O)CSc2nnc(-c3ccc(Cl)cc3)o2)c(=O)n(-c2ccccc2)n1C
B. COc1ccc(-c2nc(NS(=O)(=O)c3ccc(C(C)(C)C)cc3)nc(OC)c2C#N)cc1
C. NS(=O)(=O)c1ccc(N2N=C(c3ccc(Cl)cc3)CC2c2ccc3c(c2)OCCO3)cc1 (centres unmarked)
Order the items by recorded IC50; the first position goes to the largest value. List the labels according to the requested ordering.
C, B, A

* * *

Endpoint summary: IC50, system: Prostaglandin G/H synthase 2 (Homo sapiens), multiple sources combined.
Test Readout: IC50 (nM)

Worked cases, answers included:
CC(=O)c1nnn(-c2ccc(S(=O)(=O)Nc3nccc(C)n3)cc2)c1C | 110
COc1ccc(-c2nc(NCc3nc4ccccc4o3)nc(OC)c2C#N)cc1 | 200
NS(=O)(=O)c1ccc(-c2c(-c3ccc(Cl)cc3)c3cccc4c3n2CC4)cc1 | 106
CC(=NNC(=O)Cc1ccccc1Nc1c(Cl)cccc1Cl)c1nnn(-c2ccc(S(N)(=O)=O)cc2)c1C | 80
Cc1c(NC(=O)CSc2nnc(NC(=O)Nc3ccccc3)s2)c(=O)n(-c2ccccc2)n1C | 155

I. CCOc1ccc(C2=NN(c3ccc(S(N)(=O)=O)cc3)C(c3ccc4c(c3)OCCO4)C2)cc1 (stereo not shown)
II. NS(=O)(=O)c1ccc(-n2nc(OCc3ccc([N+](=O)[O-])cc3)ccc2=O)cc1
Which has the smaller recorded IC50, I or II ? Identify your pick by its label.
II
(II: 140 nM, I: 2440 nM)

1. NS(=O)(=O)c1ccc(N2N=C(c3cccc(F)c3)CC2c2ccc3c(c2)OCCO3)cc1 (stereo not shown)
2. CC(=NNC(=O)C(C)c1ccc(CC(C)C)cc1)c1nnn(-c2ccc(S(N)(=O)=O)cc2)c1C (stereo not shown)
Which gives the smaller IC50 number: 1 or 2 ? Answer by quoting the chosen item's label.
2

* * *

The entries below pair compounds with pIC50 values for Prostaglandin G/H synthase 2 (Homo sapiens), as found in several publications.
pIC50: −log10 of the molar value.
Test Readout: pIC50

CCOc1ccc(C2=NN(c3ccc(S(N)(=O)=O)cc3)C(c3ccc4c(c3)OCO4)C2)cc1 (stereo not shown) | 5.69
NS(=O)(=O)c1ccc(-c2c(-c3ccc(Cl)cc3)c3cccc4ccn2c43)cc1 | 7.06
CC(=O)c1ccccc1C(=O)N1CCN(Cc2ccc(F)cc2)CC1 | 7.66
NS(=O)(=O)c1ccc(-n2nc(OCc3ccccc3)ccc2=O)cc1 | 6.96
CC(=NNC(=O)c1ccccc1O)c1nnn(-c2ccc(S(N)(=O)=O)cc2)c1C | 7.10

1. NN=Cc1ccc(-n2nc(-c3ccccc3)ccc2=O)cc1
2. CCCCn1c(C)c2c(c1C)C(=O)N(CC(O)CN1CCN(S(C)(=O)=O)CC1)C2=O (stereo not shown)
Which of these two has the smaller recorded pIC50: 1 or 2 ? Mark your answer with the label of the selected entry.
2
(2: 4.23, 1: 7.58)

* * *

The entries that follow carry pIC50 values tested on Prostaglandin G/H synthase 2 (Homo sapiens, UniProt P35354), drawn from several published reports.
pIC50: −log10 of the molar value.
Test Readout: pIC50

A. CN(C)C=C1SC(NN=Cc2ccc(-n3nc(-c4ccccc4)ccc3=O)cc2)=NC1=O
B. CC1(C)CC[C@]2(C(=O)O[C@@H]3O[C@H](CO)[C@@H](O)[C@H](O)[C@H]3O)CC[C@]3(C)C(=CC[C@@H]4[C@@]5(C)CC[C@H](O[C@@H]6O[C@H](C(=O)O)[C@@H](O)[C@H](O)[C@H]6O)C(C)(C)[C@@H]5CC[C@]43C)[C@@H]2C1
C. COc1cc(C=Cc2ccc(OC)cc2OC)cc(OC)c1
D. COc1ccc(-c2nc(NS(=O)(=O)c3ccc(C(F)(F)F)cc3)nc(OC)c2C#N)cc1
Descending sort on pIC50 required. Answer with the labels in sequence, matching the requested order.
A, D, C, B
(A: 7.60, D: 6.80, C: 4.60, B: 3.53)

* * *

Multiple publications report IC50 for Prostaglandin G/H synthase 2 (Homo sapiens); what follows is a combined list.
Test Readout: IC50 (nM)

Cc1ccc2oc(=O)c(S(=O)(=O)Nc3ccccc3)c(O)c2c1 | 13400

P. Cc1ccc(-c2nnc(SCC(=O)Nc3c(C)n(C)n(-c4ccccc4)c3=O)o2)cc1
Q. CC1=NN(c2cccc(Cl)c2)C(=O)C1=Cc1cn(CCCn2c3ccccc3c(=O)c3ccccc32)c2ccccc12
R. COC(=O)C=C1SC(=NN=Cc2ccc(-n3nc(-c4ccccc4)ccc3=O)cc2)NC1=O
S. NS(=O)(=O)c1ccc(N2N=C(c3ccc(Br)cc3)CC2c2ccc3c(c2)OCCO3)cc1 (stereo not drawn)
Put the items in order so that reported IC50 rises from first to last. Record the ranking as a list of labels in the requested order.
R, P, S, Q
(R: 22.1 nM, P: 86.9 nM, S: 1270 nM, Q: 9000 nM)
